Cited source for all entries: PubChem BioAssay AID1996

conditions: buffer; pH 7.4; 200.0 µM
Answer each item with its documented solubility kinetic.

Output measured solubility kinetic for this item: CCCn1c(S(=O)(=O)O)nc2ccccc21
> 36 µg/mL

Output measured solubility kinetic for this item: O=C1CCCC(=O)N1c1ccc(N2CCOCC2)c([N+](=O)[O-])c1
> 47.9 µg/mL

Output measured solubility kinetic for this item: NC(=O)CN1C(=O)C(=O)N(Cc2ccc(Cl)cc2)C1=O
> 44.4 µg/mL

Output measured solubility kinetic for this item: Cc1ccc(S(=O)(=O)n2cnc3ccccc32)cc1[N+](=O)[O-]
> 47.6 µg/mL

Output measured solubility kinetic for this item: COc1ccc(C(=O)Nc2cc(-c3ccc(C)cc3)no2)cc1
< 0.3 µg/mL

Output measured solubility kinetic for this item: CCC(C)[C@H](NC(=O)NCc1ccc(Cl)cc1)C(=O)O (stereo not given in full)
> 44.8 µg/mL

Output measured solubility kinetic for this item: COc1ccc(Nc2ncnc3sc(C)cc23)c(OC)c1.Cl
> 50.7 µg/mL

Output measured solubility kinetic for this item: CC12CC3CC(C)(C1)CC(C(=O)NCc1ccncc1)(C3)C2
> 44.8 µg/mL

Output measured solubility kinetic for this item: C=CCC(=O)NC(C)c1cnn(-c2ccccc2C)c1C (stereo not given)
> 42.5 µg/mL

Output measured solubility kinetic for this item: CCCn1cnc2cc(NCc3cccs3)ccc21
> 40.7 µg/mL

Output measured solubility kinetic for this item: O=C1NC(=O)C(c2ccccc2)(c2ccccc2)N1
> 37.8 µg/mL

Output measured solubility kinetic for this item: CC(C)C(NC(=O)c1ccc(Cl)cc1Cl)C(=O)N1CCC1 (stereo not given)
> 49.4 µg/mL

Output measured solubility kinetic for this item: CCCCOc1ccc(C(=O)NN2CCOCC2)cc1
> 41.8 µg/mL

Output measured solubility kinetic for this item: O=C(O)c1c2c(nc3ccccc13)/C(=C/c1ccc(O)cc1)CCC2
> 49.7 µg/mL

Output measured solubility kinetic for this item: CC(=O)Nc1ccc(CN2CCN(C3CCCC3)C(CCO)C2)cc1 (stereo not given)
> 51.8 µg/mL

Output measured solubility kinetic for this item: CN(c1c[nH]c(=O)[nH]c1=O)C1CCCCC1
> 33.5 µg/mL

Output measured solubility kinetic for this item: CC(C)Oc1ccc(C(=O)NCCNC(=O)c2ccco2)cc1
> 47.5 µg/mL

Output measured solubility kinetic for this item: CN(CC(=O)NC(=O)NC1CCCCC1)Cc1ccccc1
> 45.5 µg/mL

Output measured solubility kinetic for this item: CCc1nnc(NC(=O)CN2C(=O)NC3(CC(C)CC(C)(C)C3)C2=O)s1 (stereo not given)
> 56.9 µg/mL

Output measured solubility kinetic for this item: Cc1ccccc1OCC(=O)OC(C)C(=O)NC1CCCC1 (stereo not given)
> 45.8 µg/mL

###

conditions: buffer; pH 7.4; 200.0 µM
Answer each item with its documented solubility kinetic.

Output measured solubility kinetic for this item: O=C(COc1ncnc2ccccc12)NC1CCCCC1
> 42.8 µg/mL

Output measured solubility kinetic for this item: CCOc1nc(-c2ccccc2)c2cc(Br)ccc2n1
< 0.4 µg/mL

Output measured solubility kinetic for this item: CCCCc1nc2cc(C(=O)N3CCCC3)ccc2o1
> 40.9 µg/mL

Output measured solubility kinetic for this item: Cc1cc(OC(=O)c2ccccc2C)c([N+](=O)[O-])c(=O)[nH]1
> 43.2 µg/mL

Output measured solubility kinetic for this item: Cc1nnc2c(N3CCN(CCO)CC3)nc3ccccc3n12
> 46.9 µg/mL

Output measured solubility kinetic for this item: CC(C)N1C(=O)CCC1C(=O)NCc1ccc(F)cc1Cl (stereo not drawn)
> 46.9 µg/mL

Output measured solubility kinetic for this item: COc1ccc(NC(=S)NC23CN4CN(CN(C4)C2)C3)c(OC)c1
> 52.4 µg/mL

Output measured solubility kinetic for this item: CC1CCN(C(=O)c2ccccc2NC(=O)c2cccs2)CC1
> 49.3 µg/mL

Output measured solubility kinetic for this item: CCOc1ccccc1NS(=O)(=O)c1cn(C)c(=O)n(C)c1=O
34.4 µg/mL

Output measured solubility kinetic for this item: CC12CC3(C)CC(C)(C1)CC(C(=O)NC(=S)N1CCCC1)(C2)C3
< 0.4 µg/mL

Output measured solubility kinetic for this item: NC(=O)C1CCN(CCC(=O)Nc2ccc(F)c(F)c2)CC1
> 46.7 µg/mL

Output measured solubility kinetic for this item: CCCCOc1ccc(C(=O)N2CCNC(=O)C2)cc1
> 41.5 µg/mL

Output measured solubility kinetic for this item: Cc1ccc(S(=O)(=O)CCC(=O)NC2CCCCC2)cc1
> 46.4 µg/mL

Output measured solubility kinetic for this item: Cc1ccc(C)c(S(=O)(=O)NCC(=O)N2CCCC2)c1
41.4 µg/mL

Output measured solubility kinetic for this item: COc1ccc(CCC(C)N2CCc3ccccc3C2)cc1 (stereo not drawn)
39.1 µg/mL

Output measured solubility kinetic for this item: O=C(Cc1ccc(O)cc1)NCCNC(=S)NCc1ccccc1
50.3 µg/mL

Output measured solubility kinetic for this item: Cc1cnc(N2C(=O)c3ccc([N+](=O)[O-])cc3C2=O)s1
28 µg/mL

Output measured solubility kinetic for this item: Cc1ccc(NC(=O)c2cc(C)no2)cc1
26.2 µg/mL

###

conditions: buffer; pH 7.4; 200.0 µM
MEASURED_ATTRIBUTE: solubility kinetic

Output measured solubility kinetic for this item: COc1ccc(C(CNS(=O)(=O)c2cccc(F)c2)N2CCCC2)cc1.Cl (configuration not stated)
> 62.2 µg/mL

Output measured solubility kinetic for this item: O=C(NCc1nc2ccccc2[nH]1)C1CCCCC1
> 38.6 µg/mL

Output measured solubility kinetic for this item: COC(=O)c1cccc(NC(=O)CCNC(=O)c2ccco2)c1
> 47.4 µg/mL

Output measured solubility kinetic for this item: O=C(c1ccccc1[N+](=O)[O-])N1CCC2(CC1)OCCO2
> 43.8 µg/mL

Output measured solubility kinetic for this item: O=C(NC1CN2CCC1CC2)c1cccc(Cl)c1 (configuration not stated)
> 39.7 µg/mL

Output measured solubility kinetic for this item: O=C(CSc1ncccn1)Nc1ccc2c(c1)OCO2
> 43.4 µg/mL

Output measured solubility kinetic for this item: NC(Cc1c[nH]c2ccccc12)C(=O)NCc1ccco1 (configuration not stated)
> 42.5 µg/mL

###

settings: buffer; pH 7.4; 200.0 µM
MEASURED_ATTRIBUTE: solubility kinetic (µg/mL)
Record the value in µg/mL, omitting the unit from your answer.

Output measured solubility kinetic for this item: COc1ccc(C(=O)Nc2cccc3ccccc23)cc1
1.1

Output measured solubility kinetic for this item: O=c1[nH]c([O-])c(Cc2ccc3c(c2)OCO3)c(=O)[nH]1.[NH4+]
29.7

Output measured solubility kinetic for this item: O=C(Nc1cc(S(=O)(=O)N2CCOCC2)ccc1Cl)c1cc([N+](=O)[O-])ccc1Cl
2.8

Output measured solubility kinetic for this item: COC(=O)c1cc(Sc2cccc(Cl)c2Cl)ccn1
26.3

Output measured solubility kinetic for this item: Cc1ccccc1NC(=S)N1CCN(c2ccccc2)CC1
0.6

Output measured solubility kinetic for this item: N/C(CN1CCCCC1)=N\S(=O)(=O)c1cc(Cl)cc(Cl)c1
3.7

Output measured solubility kinetic for this item: Cc1ccc(-c2noc(CCCC(=O)NCC3CCCO3)n2)cc1 (stereo not drawn)
42.2

Output measured solubility kinetic for this item: O=C(NC1=NCCS1)c1ccc(Cl)c(Cl)c1
0.9

Output measured solubility kinetic for this item: Cc1cc(C)c(NC(=O)CSCc2c(C)noc2C)c(C)c1
28.1

Output measured solubility kinetic for this item: O=C(CNC(=O)c1ccccc1)NCc1ccc(Cl)cc1
10.6

###

Answer each item with its documented solubility kinetic.
details: buffer; pH 7.4; 200.0 µM

Output measured solubility kinetic for this item: COc1ccc(S(=O)(=O)N2CCSCC2)cc1
> 41 µg/mL

Output measured solubility kinetic for this item: O=C(Nc1ccon1)Nc1ccccc1C(F)(F)F
> 40.7 µg/mL

Output measured solubility kinetic for this item: COc1ccc(Oc2cccc(Cl)c2CNC(=O)CSCC(=O)O)cc1
> 59.4 µg/mL

Output measured solubility kinetic for this item: Nc1ccc(CN2CCOCC2)cc1
> 28.8 µg/mL

Output measured solubility kinetic for this item: CC(=O)Nc1c2c(nn1-c1ccc(F)cc1)CSC2
> 41.6 µg/mL

Output measured solubility kinetic for this item: CCc1nnc(NC(=O)CN2CCCC(C)C2)s1 (stereo not given)
> 40.3 µg/mL

Output measured solubility kinetic for this item: O=C(Nc1ccc(F)cc1)Nc1csc2ccccc12
0.5 µg/mL

Output measured solubility kinetic for this item: Cc1ccc2oc(C(=O)N3CCN(C)C[C@@H]3C(C)C)c(C)c2c1
34.3 µg/mL

Output measured solubility kinetic for this item: COc1cccc(OC)c1C(=O)OCC(=O)NCc1ccco1
> 47.9 µg/mL

Output measured solubility kinetic for this item: COC(=O)c1cc(C)sc1NC(=O)CSc1ncccn1
44 µg/mL

Output measured solubility kinetic for this item: CCCOc1ccc(S(=O)(=O)N2CCOCC2)cc1[N+](=O)[O-]
> 49.6 µg/mL

Output measured solubility kinetic for this item: Nc1ncnc2nc[nH]c12
> 20.3 µg/mL

Output measured solubility kinetic for this item: Cc1cccc(SCC(=O)Nc2ccccc2[N+](=O)[O-])c1
3.7 µg/mL

Output measured solubility kinetic for this item: O=C(Nc1cccc(F)c1)C1CCCN(c2cnccn2)C1 (stereo not given)
> 45.1 µg/mL

Output measured solubility kinetic for this item: CCN(CC)Cc1c(O)ccc2c(=O)c(-c3ccccc3Cl)coc12
> 53.7 µg/mL

Output measured solubility kinetic for this item: Cc1ccc(NC(=S)NC(=O)C2CC2)cc1Cl
2.9 µg/mL

Output measured solubility kinetic for this item: COc1ccc(S(=O)(=O)N2CCOCC2)cc1NC(=O)Cc1ccsc1
7.6 µg/mL

Output measured solubility kinetic for this item: COc1ccc(-c2nc3ccccc3nc2-c2ccccc2)cc1OC
11 µg/mL

Output measured solubility kinetic for this item: Cn1c(N)c(C(=O)CSc2nc(N)cc(N)n2)c(=O)n(C)c1=O
3 µg/mL

Output measured solubility kinetic for this item: CCn1cnc2cc([N+](=O)[O-])ccc21
> 28.7 µg/mL

Output measured solubility kinetic for this item: CCS(=O)(=O)N1CCN(C(=O)c2cccc3ccccc23)CC1
> 49.9 µg/mL

Output measured solubility kinetic for this item: COc1ccccc1/C=C/C(=O)OCC(=O)c1cc(C)n(C)c1C
7.9 µg/mL

Output measured solubility kinetic for this item: Cc1ccc(N(CC(=O)NC(C)(C)C)C(=O)CCC(=O)Nc2nccs2)cc1C
12.2 µg/mL

Output measured solubility kinetic for this item: CC(=O)Nc1cccc(-c2csc(Nc3ccc(Cl)cn3)n2)c1
0.5 µg/mL

Output measured solubility kinetic for this item: Cc1ccc(SCCC(=O)NCc2ccccn2)cc1
> 43 µg/mL

Output measured solubility kinetic for this item: O=C(Nc1ccccc1)c1cc(S(=O)(=O)Nc2cccnc2)ccc1Cl
> 58.2 µg/mL

Output measured solubility kinetic for this item: O=[N+]([O-])c1cccc2c(N3CCOCC3)ccnc12
> 38.9 µg/mL

Output measured solubility kinetic for this item: O=C(Nc1ccc(F)cc1)c1cc(-c2ccccc2)no1
< 0.3 µg/mL

Output measured solubility kinetic for this item: O=C(NCCCN1CCCC1=O)Nc1ccccc1Cl
> 44.4 µg/mL

Output measured solubility kinetic for this item: CC(=O)CSc1nnc(-c2ccco2)n1-c1ccccc1
> 44.9 µg/mL

Output measured solubility kinetic for this item: O=C(c1ccccc1)c1ccccc1NC(=O)C1CCCN1Cc1ccccc1 (stereo not given)
2.6 µg/mL

Output measured solubility kinetic for this item: Cc1cc(C(=O)OCC(=O)NC2CCC(C)CC2)c(C)o1 (stereo not given)
11.6 µg/mL

Output measured solubility kinetic for this item: CCC(=NCCc1ccc(OC)c(OC)c1)C1=C(O)CC(C)(C)CC1=O
47.3 µg/mL

Output measured solubility kinetic for this item: COc1cc(OC)cc(C(=O)NC(c2ccccc2)c2ccccc2)c1
< 0.7 µg/mL

Output measured solubility kinetic for this item: NS(=O)(=O)c1ccc(CNC(=O)c2ccncc2)cc1
> 43.7 µg/mL

Output measured solubility kinetic for this item: Cc1cc(S(=O)(=O)N2CCN(c3ccccn3)CC2)ccc1F
3.6 µg/mL

Output measured solubility kinetic for this item: COc1cc2c(cc1OC)CN(C(=O)/C=C/c1cccs1)CC2
> 49.4 µg/mL

Output measured solubility kinetic for this item: Cc1nnc(SC(C)C(=O)NC2CCCCC2C)s1 (stereo not given)
> 44.9 µg/mL

Output measured solubility kinetic for this item: Cc1nc2cc(NC(=O)Nc3ccccc3Cl)ccc2n1C
7.4 µg/mL

Output measured solubility kinetic for this item: Cc1cccc(NC(=O)c2ccc([N+](=O)[O-])s2)n1
9.5 µg/mL
